Tested on: Plasma
procedure.details: Plasma concentration in collagen-induced Lewis rat arthritic model at 1 mg/kg, po qd measured immediately post compound dosing
Assay type: ADME, organism-based
Set-up: dose 1 mg/kg, route oral
experimental.context: in vivo
reported.endpoint: concentration (nM)
Give just the number in nM; leave the unit off.

-- ask So what's the measured concentration for this one? Cc1cc(C)nc(Nc2cc(N[C@@H]3CCCC[C@@H]3N)cnc2C(N)=O)c1
-- reply 5

---

procedure.details: Plasma concentration in collagen-induced Lewis rat arthritic model at 10 mg/kg, po qd measured at 2 hrs
Assay type: ADME, organism-based
Parameters: dose 10 mg/kg, route oral
reported.endpoint: concentration at 2 h (nM)
Give just the number in nM; leave the unit off.

-- ask So what's the measured concentration at 2 h for this one? Cc1cc(C)nc(Nc2cc(N[C@@H]3CCCC[C@@H]3N)cnc2C(N)=O)c1
-- reply 200
